Test: chemical genetic growth profiling, strain panel (AID 1159580);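 also: tested at 20 µM; growth read once vehicle control cultures reached saturation at 30 °C; lower values mean less growth of the strain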
Settings: S. cerevisiae deletion strains, growth OD, locus YLR268W, strain sec22
The campaign covered roughly 5,500 compounds. About 2,000 (36%) were called active. Roughly 18% stayed inconclusive and do not appear here. Rule as the data show it: active = normalized growth mostly below about 0.91 (no sharp cut-off); inconclusive = no clear call, values can overlap the other calls; inactive = mostly above about 0.92. The list shows a part of the results.
Outcomes: active, inactive

compound: O=C(O)c1cc(=O)c2c(Cl)cc(Cl)cc2[nH]1
assigned.class: inactive
--
compound: CCOc1ccc(C(=O)c2cc(O)c(OC)c(OC)c2O)cc1
assigned.class: inactive
--
compound: COc1cc2c(cc1OC)[C@@H]1C(=O)c3ccc4c(c3O[C@@H]1CO2)CC(C(C)C)O4 (some centres undefined)
assigned.class: inactive
--
compound: CC1(C)C(=O)[C@@H]2O[C@@H]2[C@@]2(C)C1CC(=O)[C@]1(C)C2CC[C@@]2(C)[C@H](c3ccoc3)OC(=O)[C@H]3O[C@]321 (some centres undefined)
assigned.class: inactive
--
compound: CC[C@@H](CO)NC(=O)[C@@H]1C=C2c3cccc4[nH]cc(c34)C[C@H]2N(C)C1
assigned.class: inactive
--
compound: CC[C@H]1CN2CCc3cc(OC)c(OC)cc3C2C[C@@H]1CC1NCCc2cc(OC)c(OC)cc21 (some centres undefined)
assigned.class: inactive
--
compound: COc1ccc(C(=O)O)c(O)c1OC
assigned.class: inactive
--
compound: C[C@]12CCC(=O)C=C1CCC1C2C(=O)C[C@@]2(C)C1CC[C@]2(O)C(=O)CO (some centres undefined)
assigned.class: inactive
--
compound: COC(=O)[C@]1(C)CC[C@]2(C)CC[C@]3(C)C4=CC=C5C(=CC(=O)C(O)=C5C)[C@]4(C)CC[C@@]3(C)[C@@H]2C1
assigned.class: active
--
compound: COc1ccc(C(=O)c2ccccc2)c(O)c1O
assigned.class: inactive
--
compound: Cc1ccc(N(CC2=NCCN2)c2cccc(O)c2)cc1
assigned.class: inactive
--
compound: O=c1c(O)c(-c2ccc(O)c(O)c2)oc2cc(O)ccc12
assigned.class: active
--
compound: CC(N)C(O)c1ccc(O)c(O)c1 (centres undefined)
assigned.class: inactive
--
compound: C=C(C)[C@H]1Cc2c(ccc3c2O[C@@H]2COc4cc(OC)c(OC)cc4[C@@H]2C3=O)O1
assigned.class: inactive
--
compound: CCC1(CC)C(=O)C=CNC1=O
assigned.class: inactive
--
compound: O=c1oc2c(O)c(O)cc3c(=O)oc4c(O)c(O)cc1c4c23
assigned.class: active
--
compound: CC[C@H]1OC(=O)[C@H](C)[C@@H](O[C@H]2C[C@@](C)(OC)[C@@H](O)[C@H](C)O2)[C@H](C)[C@@H](O[C@@H]2O[C@H](C)C[C@H](N(C)C)[C@H]2O)[C@](C)(O)C[C@@H](C)[C@@H]2N[C@@H](COCCOC)O[C@H]([C@H]2C)[C@]1(C)O
assigned.class: inactive
--
compound: CN1C(=O)CCS(=O)(=O)C1c1ccc(Cl)cc1 (centres undefined)
assigned.class: inactive
--
compound: C#C[C@]1(O)CCC2C3CCC4=Cc5oncc5C[C@]4(C)C3CC[C@@]21C (some centres undefined)
assigned.class: active
--
compound: CC(=O)CC1CCCCN1 (centres undefined)
assigned.class: inactive
--
compound: NC(N)=NC(N)=Nc1ccccc1
assigned.class: inactive
--
compound: Cc1cc(C(C)(C)C)c(O)c(C)c1CC1=NCCN1
assigned.class: inactive
--
compound: C1CCC(C(CC2CCCCN2)C2CCCCC2)CC1 (centres undefined)
assigned.class: active
--
compound: CCCc1nc2c(C)cc(-c3nc4ccccc4n3C)cc2n1Cc1ccc(-c2ccccc2C(=O)O)cc1
assigned.class: inactive
--
compound: C#CC1(O)CCC2C3CCC4=CC(=O)CCC4(C)C3CCC21C (centres undefined)
assigned.class: inactive
--
compound: COC(=O)C[C@H]1C(C)(C)[C@@H](O)[C@@H]2CC3=C4C=C(OC)O[C@@H](c5ccoc5)[C@]4(C)CCC3[C@@]1(C)C2=O (some centres undefined)
assigned.class: inactive
--
compound: COc1cc(-c2oc3cc(O)ccc3c(=O)c2O)cc(OC)c1OC
assigned.class: inactive
--
compound: CC(=O)OCC(=O)[C@@]1(O)CCC2C3CCC4=CC(=O)CC[C@]4(C)C3[C@@H](O)C[C@@]21C (some centres undefined)
assigned.class: inactive
--
compound: O=C(O)c1cc(=O)c2cccc(O)c2[nH]1
assigned.class: inactive
